- Test system: RAW 264.7 cells
- assay_notes: Quantitative cell-permeability of FITC-labeled aMTD- or rPeptide-fused CRA recombinant proteins (flow cytometry)
- Assay type: cell-based
- details: relative cell-permeability of rPeptide vs reference A (not defined)
Class t: Relative Ratio (Fold) A at least 2 Fold. Class f: Relative Ratio (Fold) A below 2 Fold.

Req: Threshold query (Relative Ratio (Fold) A >= 2 Fold) on 700 (GTSNTCQSNQNS; Amino acid Sequence of rPeptide ID 700) [compound 700]
Resp: f

Req: Threshold query (Relative Ratio (Fold) A >= 2 Fold) on 921 (IWWFVVLPLVVP; Amino acid Sequence of rPeptide ID 921) [compound 921]
Resp: t

Req: Threshold query (Relative Ratio (Fold) A >= 2 Fold) on 67 (LDAEVPLADDVP; Amino acid Sequence of rPeptide ID 67) [compound 67]
Resp: f

Req: Threshold query (Relative Ratio (Fold) A >= 2 Fold) on 16 (NNSCTTYTNGSQ; Amino acid Sequence of rPeptide ID 16) [compound 16]
Resp: f

Req: Threshold query (Relative Ratio (Fold) A >= 2 Fold) on 29 (VLPPLPVLPVLP; Amino acid Sequence of rPeptide ID 29) [compound 29]
Resp: f

---

- Tested on: RAW 264.7 cells
- assay_notes: Quantitative cell-permeability of FITC-labeled aMTD- or rPeptide-fused CRA recombinant proteins (flow cytometry)
- Assay type: cell-based
- details: cell-permeability of aMTD-fused CRA recombinant protein relative to reference CPP (C: MTD85)
Class True: Relative Ratio (Fold) C at least 10 Fold. Class False: Relative Ratio (Fold) C below 10 Fold.

Req: Threshold query (Relative Ratio (Fold) C >= 10 Fold) on 605 (VIAAVLAPVAVP; Amino acid Sequence of aMTD605) [compound 605]
Resp: False

Req: Threshold query (Relative Ratio (Fold) C >= 10 Fold) on 161 (AVIALPALIAAP; Amino acid Sequence of aMTD161) [compound 161]
Resp: True

Req: Threshold query (Relative Ratio (Fold) C >= 10 Fold) on 885 (LVAIAPAVAVLP; Amino acid Sequence of aMTD885) [compound 885]
Resp: False

Req: Threshold query (Relative Ratio (Fold) C >= 10 Fold) on 705 (IVAVALLPALAP; Amino acid Sequence of aMTD705) [compound 705]
Resp: False

Req: Threshold query (Relative Ratio (Fold) C >= 10 Fold) on 221 (AAILAPIVALAP; Amino acid Sequence of aMTD221) [compound 221]
Resp: False

Req: Threshold query (Relative Ratio (Fold) C >= 10 Fold) on 361 (AVVIVAPAVIAP; Amino acid Sequence of aMTD361) [compound 361]
Resp: False

Req: Threshold query (Relative Ratio (Fold) C >= 10 Fold) on 225 (VAALLPAAAVLP; Amino acid Sequence of aMTD225) [compound 225]
Resp: False

Req: Threshold query (Relative Ratio (Fold) C >= 10 Fold) on 61 (VAALPVLLAALP; Amino acid Sequence of aMTD61) [compound 61]
Resp: True

---

- Test system: RAW 264.7 cells
- assay_notes: Quantitative cell-permeability of FITC-labeled aMTD- or rPeptide-fused CRA recombinant proteins (flow cytometry)
- Type: cell-based
- details: cell-permeability of aMTD-fused CRA recombinant protein relative to reference CPP (B: MTM12)
- Description: The aMTDs and rPeptides were fluorescently labeled and compared based on the critical factors for cell-permeability by using flow cytometry and confocal laser scanning microscopy (FIGS. 5 to 8). The cellular uptake of the peptide-fused non-functional cargo recombinant proteins could quantitatively be evaluated in flow cytometry, while confocal laser scanning microscopy allows intracellular uptake to be assessed visually. […]
Kindly state Relative Ratio (Fold) B for each of the entries shown.
Quick note: give the figure in Fold, leave out the unit.

Measured on RAW 264.7 cells, 846 (IAVAVAAPLLVP; Amino acid Sequence of aMTD846) [compound 846] has a documented Relative Ratio (Fold) B of 6.8

Measured on RAW 264.7 cells, 404 (LAAAVIPAAILP; Amino acid Sequence of aMTD404) [compound 404] has a documented Relative Ratio (Fold) B of 12.6

Measured on RAW 264.7 cells, 282 (VLAVAPALIVAP; Amino acid Sequence of aMTD282) [compound 282] has a documented Relative Ratio (Fold) B of 7.9

Measured on RAW 264.7 cells, 161 (AVIALPALIAAP; Amino acid Sequence of aMTD161) [compound 161] has a documented Relative Ratio (Fold) B of 23.0

Measured on RAW 264.7 cells, 323 (IVAVALPVALAP; Amino acid Sequence of aMTD323) [compound 323] has a documented Relative Ratio (Fold) B of 12.8

Measured on RAW 264.7 cells, 705 (IVAVALLPALAP; Amino acid Sequence of aMTD705) [compound 705] has a documented Relative Ratio (Fold) B of 19.1

Measured on RAW 264.7 cells, 383 (VIVALAPALLAP; Amino acid Sequence of aMTD383) [compound 383] has a documented Relative Ratio (Fold) B of 7.7

Measured on RAW 264.7 cells, 384 (VIVAIAPALLAP; Amino acid Sequence of aMTD384) [compound 384] has a documented Relative Ratio (Fold) B of 9.4

Measured on RAW 264.7 cells, 507 (VAIALAPVVVAP; Amino acid Sequence of aMTD907) [compound 507] has a documented Relative Ratio (Fold) B of 5.4

Measured on RAW 264.7 cells, 541 (LLALIIAPAAAP; Amino acid Sequence of aMTD541) [compound 541] has a documented Relative Ratio (Fold) B of 9.9

Measured on RAW 264.7 cells, 882 (AIALVVPAVAVP; Amino acid Sequence of aMTD882) [compound 882] has a documented Relative Ratio (Fold) B of 23.4

Measured on RAW 264.7 cells, 887 (VLAVAPAVAVLP; Amino acid Sequence of aMTD887) [compound 887] has a documented Relative Ratio (Fold) B of 5.1

Measured on RAW 264.7 cells, 828 (IALLAAPIIAVP; Amino acid Sequence of aMTD828) [compound 828] has a documented Relative Ratio (Fold) B of 24.6

Measured on RAW 264.7 cells, 865 (AVLVIAVPAIAP; Amino acid Sequence of aMTD865) [compound 865] has a documented Relative Ratio (Fold) B of 7.5

Measured on RAW 264.7 cells, 463 (AVAILVPLLAAP; Amino acid Sequence of aMTD463) [compound 463] has a documented Relative Ratio (Fold) B of 11.7

Measured on RAW 264.7 cells, 223 (AILAVPIAVVAP; Amino acid Sequence of aMTD223) [compound 223] has a documented Relative Ratio (Fold) B of 22.1

Measured on RAW 264.7 cells, 544 (IVALIVAPAAVP; Amino acid Sequence of aMTD544) [compound 544] has a documented Relative Ratio (Fold) B of 15.6

Measured on RAW 264.7 cells, 145 (LLAVVPAVALAP; Amino acid Sequence of aMTD145) [compound 145] has a documented Relative Ratio (Fold) B of 6.3

Measured on RAW 264.7 cells, 625 (ILAAAAAPLIVP; Amino acid Sequence of aMTD625) [compound 625] has a documented Relative Ratio (Fold) B of 13.9

Measured on RAW 264.7 cells, 241 (AAAVVPVLLVAP; Amino acid Sequence of aMTD241) [compound 241] has a documented Relative Ratio (Fold) B of 11.0

Measured on RAW 264.7 cells, 385 (IVAIAVPALVAP; Amino acid Sequence of aMTD385) [compound 385] has a documented Relative Ratio (Fold) B of 25.9

Measured on RAW 264.7 cells, 766 (IVVIAVAPAVAP; Amino acid Sequence of aMTD766) [compound 766] has a documented Relative Ratio (Fold) B of 8.6

Measured on RAW 264.7 cells, 322 (VVAIVLPALAAP; Amino acid Sequence of aMTD322) [compound 322] has a documented Relative Ratio (Fold) B of 11.7

Measured on RAW 264.7 cells, 706 (IVAVALLPAVAP; Amino acid Sequence of aMTD706) [compound 706] has a documented Relative Ratio (Fold) B of 7.0

Measured on RAW 264.7 cells, 888 (ILAVVAIPAAAP; Amino acid Sequence of aMTD888) [compound 888] has a documented Relative Ratio (Fold) B of 47.5

Measured on RAW 264.7 cells, 605 (VIAAVLAPVAVP; Amino acid Sequence of aMTD605) [compound 605] has a documented Relative Ratio (Fold) B of 7.4

Measured on RAW 264.7 cells, 891 (ILAVAAIPAALP; Amino acid Sequence of aMTD891) [compound 891] has a documented Relative Ratio (Fold) B of 29.9

Measured on RAW 264.7 cells, 825 (IVAVIVAPAVAP; Amino acid Sequence of aMTD825) [compound 825] has a documented Relative Ratio (Fold) B of 46.6

Measured on RAW 264.7 cells, 391 (VVAIVLPAVAAP; Amino acid Sequence of aMTD381) [compound 391] has a documented Relative Ratio (Fold) B of 7.7

Measured on RAW 264.7 cells, 564 (VAIALIVPALAP; Amino acid Sequence of aMTD564) [compound 564] has a documented Relative Ratio (Fold) B of 29.1

Measured on RAW 264.7 cells, 64 (AIVALPVAVLAP; Amino acid Sequence of aMTD64) [compound 64] has a documented Relative Ratio (Fold) B of 10.6

Measured on RAW 264.7 cells, 666 (AAIAIIAPAIVP; Amino acid Sequence of aMTD666) [compound 666] has a documented Relative Ratio (Fold) B of 9.9

Measured on RAW 264.7 cells, 505 (AIIIVIAPAAAP; Amino acid Sequence of aMTD505) [compound 505] has a documented Relative Ratio (Fold) B of 8.3

Measured on RAW 264.7 cells, 810 (VIVLAAPALAAP; Amino acid Sequence of aMTD810) [compound 810] has a documented Relative Ratio (Fold) B of 80.3
